# assayed-target: human ether-à-go-go-related gene (hERG) potassium channel (human);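 further: peak tail current of the secondary pulse compared with the same well before compound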
# experiment-summary: primary screen, population patch clamp on CHO cells stably expressing hERG; higher = less effect of the substance
Hit rate of the full screen: of about 310,000 compounds, about 14,000 (4.5%) showed an effect of 50% or more. The effect is printed as a negative number. The sample holds strong results, similar compounds and a random draw of the others, so the mix is not that of the screen.
metric-name: hERG current change (%, negative = inhibition) at 10uM (%)
Write it as a number; the unit % goes unstated.

For orientation, consider the following solved cases.
# lookup: hERG current change (%, negative = inhibition) at 10uM of `CC(C)Oc1ccc(C(=O)N2CCN(C(=O)c3ccco3)CC2)cc1` -29.6

What does the data say about its hERG current change (%, negative = inhibition) at 10uM? Entry: CC1CCCCN1Cc1c(O)ccc2c(=O)c(-c3ccc(Cl)cc3)coc12 (stereo not shown) -69.1

***
Quick check: hERG current change (%, negative = inhibition) at 10uM of `CNC(=O)n1cc(C)c(-c2cccs2)n1` ? 5.15

Tell me the measured hERG current change (%, negative = inhibition) at 10uM of `O=C(COc1ccc(Br)cc1)NCc1ccccn1` , please. -8.53

Give its hERG current change (%, negative = inhibition) at 10uM value. Item: `COc1cccc(Nc2cc(C)c3ccccc3n2)c1` 6.21

Look up hERG current change (%, negative = inhibition) at 10uM: `COc1cccc(CNC(=O)CCNS(=O)(=O)c2cccs2)c1` -5.11

Entry `CCn1cnc2cc(NCc3ccc(C)cc3)ccc21` : reported hERG current change (%, negative = inhibition) at 10uM = ? -40.4

Entry `Cc1cc(OCC(=O)NCc2ccncc2)c2c3c(c(=O)oc2c1)CCC3` has what hERG current change (%, negative = inhibition) at 10uM? -10.3

Report hERG current change (%, negative = inhibition) at 10uM for `CCn1cnc2cc(NCc3ccc(N(C)C)cc3)ccc21` please. -8.28

Entry `COc1ccc(CNc2ccc3c(c2)nc(C)n3C)cc1OC` has what hERG current change (%, negative = inhibition) at 10uM? -17.1

Given the compound Cc1ccc(N(C)C(=O)C2CCCN2S(=O)(=O)c2ccc3c(c2)n(C)c(=O)c(=O)n3C)cc1 (stereo not shown) , what is its reported hERG current change (%, negative = inhibition) at 10uM? -2.28

Recorded hERG current change (%, negative = inhibition) at 10uM of `Cc1ccc(Nc2cc(C)nc3ccccc23)c(C)c1` , please. -42.8

Consider the compound shown here: COc1ccc(-c2coc3c(CN4CCCCC4C)c(O)ccc3c2=O)cc1 (stereo not shown) What is its recorded hERG current change (%, negative = inhibition) at 10uM? -39.4

Which hERG current change (%, negative = inhibition) at 10uM value is on record for `CCOC(=O)c1c(C)nn(-c2ccc(NC(=O)c3cccs3)cc2)c1C` ? 16.8

Name the recorded hERG current change (%, negative = inhibition) at 10uM for CC1CCCCN1Cc1c(O)ccc2c(=O)c(-c3ccc(Cl)cc3Cl)coc12 (stereo not shown) . -60.7

May I ask what hERG current change (%, negative = inhibition) at 10uM has been recorded for Cc1nccn1CC(O)COC1CCCCC1 (stereo not shown) ? 13

====

Measured hERG current change (%, negative = inhibition) at 10uM accompanies every entry in the list below.
# assayed-target: human ether-à-go-go-related gene (hERG) potassium channel (human, UniProt Q12809);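 further: peak tail current of the secondary pulse compared with the same well before compound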
# Sequence (Q12809 whole entry, looked up): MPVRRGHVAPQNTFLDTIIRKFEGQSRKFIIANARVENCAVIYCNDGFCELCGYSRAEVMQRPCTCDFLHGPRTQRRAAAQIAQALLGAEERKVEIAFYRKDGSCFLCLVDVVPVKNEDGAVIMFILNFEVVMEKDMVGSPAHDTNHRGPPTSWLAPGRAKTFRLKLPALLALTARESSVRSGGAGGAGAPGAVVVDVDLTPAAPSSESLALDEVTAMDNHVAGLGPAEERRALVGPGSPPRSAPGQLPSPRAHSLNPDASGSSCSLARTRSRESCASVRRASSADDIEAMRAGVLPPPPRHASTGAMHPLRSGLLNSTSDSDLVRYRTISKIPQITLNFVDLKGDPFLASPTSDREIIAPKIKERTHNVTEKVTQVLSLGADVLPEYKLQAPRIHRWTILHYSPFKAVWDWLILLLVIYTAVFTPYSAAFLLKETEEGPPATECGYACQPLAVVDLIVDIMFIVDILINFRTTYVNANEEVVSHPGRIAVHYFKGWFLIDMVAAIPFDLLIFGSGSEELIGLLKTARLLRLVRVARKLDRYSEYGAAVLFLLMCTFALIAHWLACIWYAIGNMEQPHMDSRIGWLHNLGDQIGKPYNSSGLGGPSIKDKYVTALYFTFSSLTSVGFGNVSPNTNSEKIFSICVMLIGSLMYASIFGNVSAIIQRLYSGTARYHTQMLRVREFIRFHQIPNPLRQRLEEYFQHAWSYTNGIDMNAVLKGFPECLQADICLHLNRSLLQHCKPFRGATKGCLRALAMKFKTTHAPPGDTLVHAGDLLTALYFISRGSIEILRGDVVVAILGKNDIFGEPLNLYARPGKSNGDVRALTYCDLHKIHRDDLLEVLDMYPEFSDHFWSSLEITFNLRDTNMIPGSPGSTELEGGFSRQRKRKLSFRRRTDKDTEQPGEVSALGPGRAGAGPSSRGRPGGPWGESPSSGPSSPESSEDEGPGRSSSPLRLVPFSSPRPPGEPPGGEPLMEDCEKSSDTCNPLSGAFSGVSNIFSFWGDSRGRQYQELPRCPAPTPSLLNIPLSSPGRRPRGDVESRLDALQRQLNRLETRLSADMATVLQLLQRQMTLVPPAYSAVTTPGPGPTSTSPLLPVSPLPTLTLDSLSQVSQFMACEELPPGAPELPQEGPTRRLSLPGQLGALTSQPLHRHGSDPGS
# experiment-summary: primary screen, population patch clamp on CHO cells stably expressing hERG; higher = less effect of the substance
Hit rate of the full screen: of about 310,000 compounds, about 14,000 (4.5%) showed an effect of 50% or more. The effect is printed as a negative number. For the sample, strong results were picked, then their nearest neighbours and some compounds at random.
Write the value in % as a bare number.

Known hERG current change (%, negative = inhibition) at 10uM results, listed for orientation:
Using the record for `CCn1c(/C=C2\C(=O)Nc3ccccc32)nc2ccccc2c1=O` , report its hERG current change (%, negative = inhibition) at 10uM. -18.3

Recorded hERG current change (%, negative = inhibition) at 10uM of `COc1ccc(CC(=O)Nc2c(C(=O)N3CCN(c4ncccn4)CC3)oc3ccccc23)cc1OC` , please. -46.8

Bench note: what hERG current change (%, negative = inhibition) at 10uM did `CCc1cc(C(=O)Cc2ccc(F)cc2)c(O)cc1O` show? -12.7

hERG current change (%, negative = inhibition) at 10uM lookup needed for `CN(C)CCN(C(=O)c1ccc(C(=O)c2ccccc2)cc1)c1nc2cc3c(cc2s1)OCCO3.Cl` , thanks. -12.4

Looking for the measured hERG current change (%, negative = inhibition) at 10uM of `CN(C)CCCN(C(=O)c1ccc2c(c1)CCCC2)c1nc2cc3c(cc2s1)OCO3.Cl` , can you help? -71

Fill blank: measured hERG current change (%, negative = inhibition) at 10uM of the molecule CCOc1ccccc1CN1CCN(C2CCC2)CC1CCO (centres unmarked) is ____. 27.4

Dear colleague, I am looking for the recorded hERG current change (%, negative = inhibition) at 10uM of the following molecule: `CN(C)c1cc(-c2ccc(Cl)cc2)oc(=O)c1Cl` -6.67

Which hERG current change (%, negative = inhibition) at 10uM value is on record for `CN(C)CCN(C(=O)c1ccc2c(c1)CCCC2)c1nc2cc3c(cc2s1)OCCO3.Cl` ? 5.76

Form field: reported hERG current change (%, negative = inhibition) at 10uM of `COc1ccc(N2CCN(C(=O)c3oc4ccccc4c3NC(=O)Cc3ccc(OC)c(OC)c3)CC2)cc1` -28.7

What does the data say about its hERG current change (%, negative = inhibition) at 10uM? Entry: `CCN(CC)CCN(C(=O)c1ccc(C(=O)c2ccccc2)cc1)c1nc2cc3c(cc2s1)OCO3.Cl` -43.8

More entries:
Form field: reported hERG current change (%, negative = inhibition) at 10uM of `CN(C)CCCN(C(=O)c1ccco1)c1nc2c(F)cc(F)cc2s1.Cl` -72.2

Looking for the measured hERG current change (%, negative = inhibition) at 10uM of `Cc1nc(Nc2nc(-c3ccccc3)cc(=O)[nH]2)nc2ccccc12` , can you help? -3.73

# lookup: hERG current change (%, negative = inhibition) at 10uM of `CCN(CC)CCN(C(=O)c1ccc2ccccc2c1)c1nc2cc3c(cc2s1)OCO3.Cl` -38.6

Fill blank: measured hERG current change (%, negative = inhibition) at 10uM of the molecule `COc1ccc2nc(SCc3cccc(C)c3)nc(C)c2c1` is ____. -10.9

# lookup: hERG current change (%, negative = inhibition) at 10uM of COc1ccc(CN2CCN(C3CCC3)CC2CCO)c(F)c1 (centres unmarked) 9.71

State the recorded hERG current change (%, negative = inhibition) at 10uM for this entry: `CC(C)C(=O)Nc1ccc(NC(=O)c2ccc3c(c2)OCO3)cc1` 10.2

# query: hERG current change (%, negative = inhibition) at 10uM of entry `O=C(c1oc2ccccc2c1CSCc1ccccc1)N1CCN(c2ncccn2)CC1` 1.59

hERG current change (%, negative = inhibition) at 10uM lookup needed for `CN(C)CCCN(C(=O)c1ccc(C(=O)c2ccccc2)cc1)c1nc2cc3c(cc2s1)OCO3.Cl` , thanks. -56.3

Request the reported hERG current change (%, negative = inhibition) at 10uM associated with `COc1ccc(CC(=O)Nc2c(C(=O)N3CCN(c4ncccn4)CC3)oc3ccccc23)cc1` -63.7

Fill in: hERG current change (%, negative = inhibition) at 10uM of `CC(=O)c1ccc(-n2c(C)c(C(C)=O)c3cc(O)ccc32)cc1` is ___ 8.94

====

# assayed-target: human ether-à-go-go-related gene (hERG) potassium channel (human, UniProt Q12809);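 further: peak tail current of the secondary pulse compared with the same well before compound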
# experiment-summary: primary screen, population patch clamp on CHO cells stably expressing hERG; higher = less effect of the substance
# Experimental: Briefly, Chinese hamster ovary (CHO) cells stably expressing the hERG channel were dislodged from tissue culture flasks and dispensed into PPC plates. […] During the recording, background leak currents were estimated by a 100 ms step to -80 mV from an initial holding potential of -70 mV and subtracted from the subsequent current measurement. The campaign was conducted in two phases using slight differences in recording protocol. […]
Among all 310,000 compounds or so, about 14,000 (4.5%) showed an effect of 50% or more. Effects have a minus sign here. This is one part of a sample in which strong results are shown more often than they occur.
metric-name: hERG current change (%, negative = inhibition) at 10uM (%)
Numbers only; they are read as %.

For `Cc1onc(-c2ccccc2Cl)c1C(=O)OCC(=O)N1CCN(c2ccccc2)CC1` , what is its reported hERG current change (%, negative = inhibition) at 10uM? -16.1

State the recorded hERG current change (%, negative = inhibition) at 10uM for this entry: `CCN(Cc1ccncc1)Cc1ccc(Br)cc1.O=C(O)C(=O)O` -5.38

Quick one: hERG current change (%, negative = inhibition) at 10uM for `Cc1nonc1OCC(C)(COc1nonc1C)NC(=O)c1ccc(Cl)cc1` ? -61.1

Item under review: `CCN(CC)c1ccc(NC(=O)CN(C)Cc2cccs2)cc1` . Reported hERG current change (%, negative = inhibition) at 10uM? 6.07

# query: hERG current change (%, negative = inhibition) at 10uM of entry `Cc1cc(C)nc(N2CCN(C(=O)CCC(=O)Nc3nnc(CC(C)C)s3)CC2)n1` -6.7

Then there is this compound:
Please report the recorded hERG current change (%, negative = inhibition) at 10uM for `CC1CCN(c2nc(NCc3ccco3)nc(N)c2[N+](=O)[O-])CC1` . -11.9
